Target: T1, TfR1 (human, Sino Biological Inc.) (human, UniProt P02786 89-760)
T1 construct: Bought protein; the catalogue number printed for it (11020-MM02) is the same as that printed for the anti-TfR1 primary antibody, so the construct cannot be told; also called TfFR1; receptor TfR1
T1 sequence (P02786 89-760 limits assumed): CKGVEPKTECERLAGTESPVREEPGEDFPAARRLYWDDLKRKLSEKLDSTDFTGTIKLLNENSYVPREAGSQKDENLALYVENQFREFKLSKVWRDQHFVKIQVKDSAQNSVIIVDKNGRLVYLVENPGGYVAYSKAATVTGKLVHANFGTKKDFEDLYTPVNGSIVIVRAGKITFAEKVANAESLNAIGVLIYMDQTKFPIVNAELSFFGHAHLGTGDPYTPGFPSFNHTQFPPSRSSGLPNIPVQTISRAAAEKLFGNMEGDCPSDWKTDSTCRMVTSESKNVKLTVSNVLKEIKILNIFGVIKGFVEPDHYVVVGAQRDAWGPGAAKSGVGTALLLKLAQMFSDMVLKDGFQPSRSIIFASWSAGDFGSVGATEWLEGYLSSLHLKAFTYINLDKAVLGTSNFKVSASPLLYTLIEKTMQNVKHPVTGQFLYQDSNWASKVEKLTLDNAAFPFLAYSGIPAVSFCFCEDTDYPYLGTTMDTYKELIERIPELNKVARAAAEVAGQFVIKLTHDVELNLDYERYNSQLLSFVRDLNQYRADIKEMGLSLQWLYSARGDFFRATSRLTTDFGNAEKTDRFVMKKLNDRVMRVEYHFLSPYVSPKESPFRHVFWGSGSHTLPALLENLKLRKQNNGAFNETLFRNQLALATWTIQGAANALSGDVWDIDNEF
Assay: ELISA value converted by purity of target protein
Catalogue of binders with associated Converted ELISA value
Answer using only a numeral; do not append any unit.

C terminal (designed binder) MSSQIRQNYSTDVEAAVNSLVNLYLQASYTYLSLGFYFDRDDVALEGVSHFFRELAEEKREGYERLLKMQNQRGGRALFQDIKKPAEDEWESGLNAMECALHLEKKLNQALLDLHALGSARTDPHLCDFLETHFLDEEVKLIKKMGDHLTNLRKMGAPEAGLGEYLFERLTLKHD; 0.17

Reported Converted ELISA value for NC-loop (designed binder) MSSQIRQNYHQDSEAAVNRQINLYLQASYTYLSLGFYFDRDDVALEGVSHFFRELAEEKREGYERLLKMQNQRGGRIFLQDIKKPDCDEWESGLNAMECALHLEKKLNQALLDLHKLATDKNDPHLCDFLETHFLDEEVKLIKKMGDHLTNLRKMGAPEAGLGEYLFERLTLKHD : what is it?
2.02

Reported Converted ELISA value for C-loop (designed binder) MSSQIRQNYSTDVEAAVNSLVNLYLQASYTYLSLGFYFDRDDVALEGVSHFFRELAEEKREGYERLLKMQNQRGGRALFQDIKKPDCDEWESGLNAMECALHLEKKLNQALLDLHALGSARTDPHLCDFLETHFLDEEVKLIKKMGDHLTNLRKMGAPEAGLGEYLFERLTLKHD : what is it?
0.71

Reported Converted ELISA value for NC fusion (designed binder) MSSQIRQNYHQDSEAAVNRQINLYLQASYTYLSLGFYFDRDDVALEGVSHFFRELAEEKREGYERLLKMQNQRGGRIFLQDIKKPAEDEWESGLNAMECALHLEKKLNQALLDLHKLATDKNDPHLCDFLETHFLDEEVKLIKKMGDHLTNLRKMGAPEAGLGEYLFERLTLKHD : what is it?
1.14
